Value source: ChEMBL document CHEMBL3822389

Experiment: Cytotoxicity against human HL60 cells after 72 hrs by MTT assay
Assay type: functional, cell-based, HL-60
Conditions: Homo sapiens, HL-60, 72 h
Answer each item with its documented IC50.
Write down the numeric answer in µM and omit the unit.

Consider the compound CC(C)(C)OC(=O)NCCNC(C1=C(O)C(=O)c2ccccc2C1=O)c1ccccc1O (stereo not given) and give its measured IC50. 19.2

Again, but for CCCCCCCNC(C1=C(O)C(=O)c2ccccc2C1=O)c1ccc(Cl)cc1Cl (stereo not given) 4.5

Again, but for O=C1C(O)=C(C(NCc2ccco2)c2ccccn2)C(=O)c2ccccc21 (stereo not given) 5.8

====

Assay: Cytotoxicity against human HL60 cells after 72 hrs by MTT assay
Assay type: functional, cell-based, HL-60
Conditions: Homo sapiens, HL-60, 72 h
Rule: measured IC50 below 8 µM gets MET; anything equal to or greater than 8 µM gets NOT MET.

Hi there! Is IC50 for CC(C)(C)OC(=O)NCCCNC(C1=C(O)C(=O)c2ccccc2C1=O)c1ccccc1O (stereo not given) below 8 µM, do you know? NOT MET

Again, but for CC(C)(C)OC(=O)NCCCNC(C1=C(O)C(=O)c2ccccc2C1=O)c1cccc(O)c1 (stereo not given) NOT MET

Again, but for Cc1ccc(O)c(C(NCc2ccccc2)C2=C(O)C(=O)c3ccccc3C2=O)c1 (stereo not given) MET

Again, but for CCCCCCCNC(C1=C(O)C(=O)c2ccccc2C1=O)c1ccccc1O (stereo not given) MET

Again, but for CCCCCCCNC(C1=C(O)C(=O)c2ccccc2C1=O)c1ccc([N+](=O)[O-])cc1 (stereo not given) NOT MET

Again, but for CCCCCCCCCCNC(C1=C(O)C(=O)c2ccccc2C1=O)c1cccc(O)c1 (stereo not given) NOT MET

Again, but for CCCCCCCCCCNC(C1=C(O)C(=O)c2ccccc2C1=O)c1ccccn1 (stereo not given) MET

Again, but for COc1cccc2c1C(=O)c1c(O)c3c(c(O)c1C2=O)C[C@@](O)(C(=O)CO)C[C@@H]3O[C@H]1C[C@H](N)[C@H](O)[C@H](C)O1 [DOXORUBICIN] MET

Again, but for O=C1C(O)=C(C(NCc2ccccc2)c2ccc([N+](=O)[O-])cc2)C(=O)c2ccccc21 (stereo not given) NOT MET

Again, but for "O=C1C(O)=C(CNCCCCl)C(=O)c2ccccc21" NOT MET

Again, but for O=C1C(O)=C(C(NCCCCl)c2ccccc2)C(=O)c2ccccc21 (stereo not given) NOT MET

Again, but for CCCCNC(C1=C(O)C(=O)c2ccccc2C1=O)c1ccc([N+](=O)[O-])cc1 (stereo not given) NOT MET

Again, but for CC(C)(C)OC(=O)NCCNC(C1=C(O)C(=O)c2ccccc2C1=O)c1cccc(O)c1 (stereo not given) NOT MET

Again, but for CCCCCCCCCCNC(C1=C(O)C(=O)c2ccccc2C1=O)c1cc(Br)ccc1O (stereo not given) NOT MET

Again, but for O=C1C(O)=C(C(NCCCCl)c2ccc([N+](=O)[O-])cc2)C(=O)c2ccccc21 (stereo not given) NOT MET

Again, but for CC(C)(C)OC(=O)NCCNC(C1=C(O)C(=O)c2ccccc2C1=O)c1ccccc1 (stereo not given) NOT MET

Again, but for CCCCCCCCCCNC(C1=C(O)C(=O)c2ccccc2C1=O)c1ccccc1O (stereo not given) NOT MET

Again, but for "CC(C)(C)OC(=O)NCCCNCC1=C(O)C(=O)c2ccccc2C1=O" NOT MET

Again, but for CCCCCCCNC(C1=C(O)C(=O)c2ccccc2C1=O)c1cc(Br)ccc1O (stereo not given) NOT MET
